System: RAW264.7
Assay: Anti-inflammatory activity in mouse RAW264.7 cells assessed as reduction in NFkappaB mRNA expression at 25 uM pre-incubated for 1 hr before […] for 18 hrs by qRT-PCR analysis
Type: functional, cell-based
Calls of active or inactive are those of the source. No cut-off for these calls is given here.

Molecule: C[C@H](C/C=C/C(C)(C)O)[C@H]1CC[C@@]2(C)[C@@H]3C=C[C@@]45OC[C@]3(CC[C@]12C)[C@@H]4CC[C@H](O[C@@H]1O[C@H](CO)[C@@H](O)[C@H](O)[C@H]1O)C5(C)C [MOMORDICOSIDE I]
inhibition: Active
--
Molecule: COC(C)(C)/C=C/C[C@@H](C)[C@H]1CC[C@@]2(C)[C@@H]3[C@@H](O[C@@H]4O[C@H](CO)[C@@H](O)[C@H](O)[C@H]4O)C=C4[C@@H](CC[C@H](O)C4(C)C)[C@]3(C=O)CC[C@]12C
inhibition: Active
--
Molecule: O=C(O)c1cc(O[C@@H]2OC[C@@H](O)[C@H](O)[C@H]2O)ccc1O
inhibition: Active

* * *

Tested on: Saccharomyces cerevisiae
Test: Inhibition of Saccharomyces cerevisiae alpha-glucosidase at 1.3 mM pre-incubated for 15 mins before p-nitrophenyl alpha-D-glucopyranoside substrate addition and measured after 30 mins
Quick reference: inhibition of the listed items.
Assay Metric: inhibition

Compound: C[C@H](C/C=C/C(C)(C)O)[C@H]1CC[C@@]2(C)[C@@H]3C=C[C@@]45OC[C@]3(CC[C@]12C)[C@@H]4CC[C@H](O[C@@H]1O[C@H](CO)[C@@H](O)[C@H](O)[C@H]1O)C5(C)C [MOMORDICOSIDE I]
Measured On: Saccharomyces cerevisiae
Assay Metric: inhibition
Value Observed: 35.1%

Compound: COC(C)(C)/C=C/C[C@@H](C)[C@H]1CC[C@@]2(C)[C@@H]3[C@@H](O[C@@H]4O[C@H](CO)[C@@H](O)[C@H](O)[C@H]4O)C=C4[C@@H](CC[C@H](O)C4(C)C)[C@]3(C=O)CC[C@]12C
Measured On: Saccharomyces cerevisiae
Assay Metric: inhibition
Value Observed: 47.5%

* * *

# reported inhibition; entries follow
Test system: Saccharomyces cerevisiae
Assay: Inhibition of Saccharomyces cerevisiae alpha-glucosidase at 1.3 mM pre-incubated for 15 mins before p-nitrophenyl alpha-D-glucopyranoside substrate addition and measured after 30 mins

Compound: C[C@H](CC(O)C(O)C(C)(C)O)[C@H]1CC[C@@]2(C)[C@@H]3C=C[C@@]45OC[C@]3(CC[C@]12C)[C@@H]4CC[C@H](O[C@@H]1O[C@H](CO)[C@@H](O)[C@@H](O)[C@H]1O)C5(C)C (stereo not given in full)
Unit Text: %
inhibition: 49.4
//
Compound: C[C@H](C/C=C/C(C)(C)O)[C@H]1CC[C@@]2(C)[C@@H]3C=C[C@@]45OC[C@]3(CC[C@]12C)[C@@H]4CC[C@H](O[C@@H]1O[C@H](CO)[C@@H](O)[C@@H](O)[C@H]1O)C5(C)C [MOMORDICOSIDE F2]
Unit Text: %
inhibition: 42.4
//
Compound: COC(C)(C)/C=C/C[C@@H](C)[C@H]1CC[C@@]2(C)[C@@H]3C=C[C@@]45OC[C@]3(CC[C@]12C)[C@@H]4CC[C@H](O[C@@H]1O[C@H](CO)[C@@H](O)[C@@H](O)[C@H]1O)C5(C)C
Unit Text: %
inhibition: 48.5
//
Compound: COC(C)(C)/C=C/C[C@@H](C)[C@H]1CC[C@@]2(C)[C@@H]3C=C[C@@]45OC[C@]3(CC[C@]12C)[C@@H]4CC[C@H](O[C@@H]1O[C@H](CO)[C@@H](O)[C@H](O)[C@H]1O)C5(C)C [MOMORDICOSIDE F1]
Unit Text: %
inhibition: 35.9
//
Compound: O=C(O)c1cc(O[C@@H]2OC[C@@H](O)[C@H](O)[C@H]2O)ccc1O
Unit Text: %
inhibition: 56.4
